These entries and their values trace back to paper PMC3673949.

Experiment: Plasma and tumor exposure at steady state in xenograft-bearing mice
Type: in vivo, nude mice
Conditions: nude, mouse, in vivo, po, 12.5 mg/kg, BEL-7402, 12.5 mpk, bid, PO; read-out: Plasma AUC @ SS
readout_type: AUC (ng·h/mL)
Could you give me the number in ng·h/mL? Just the number is fine.

**Query** I'd like to know its AUC. The compound in question is COc1ccc2c(c1)C(c1ccccc1Cl)=Nc1c(n[nH]c1C)N2
**Result** 26100

----------
Assay: Single dose pharmacokinetic (SDPK) study
Format: in vivo
Conditions: plasma, iv, 5 mg/kg; Monkey, single dose; read-out: Vdss
readout_type: Vd
Answer with the number, then the unit.

**Query** # query: Vd of entry COc1ccc2c(c1)C(c1ccccc1Cl)=Nc1c(n[nH]c1C)N2 [R1498]
**Result** 2.1 L/kg

----------
Test: Dose range finding and toxicokinetic study
Assay type: in vivo
Settings: male, Wistar, rat, in vivo, po
readout_type: MTD at 2 week

**Query** Any idea what MTD at 2 week was measured for COc1ccc2c(c1)C(c1ccccc1Cl)=Nc1c(n[nH]c1C)N2 ?
**Result** > 100 mg/kg

----------
Experiment: Dose range finding and toxicokinetic study
Type: in vivo
Settings: male, Wistar, rat, in vivo, po, 100 mg/kg
readout_type: AUC(0-t)

**Query** Query (compound): COc1ccc2c(c1)C(c1ccccc1Cl)=Nc1c(n[nH]c1C)N2 [R1498] ; field requested: AUC(0-t)
**Result** > 155 µg·h/mL

----------
Assay: Plasma and tumor exposure at steady state in xenograft-bearing mice
Format: in vivo, nude mice
Conditions: nude, mouse, plasma, po, 25 mg/kg, BGC-823 (model cell empty, from line above), 25 mpk, single dose, PO (PK arm); read-out: Plasma AUC @ SS
readout_type: AUC (ng·h/mL)
Quick note: give the figure in ng·h/mL, leave out the unit.

**Query** Give its AUC value. Item: COc1ccc2c(c1)C(c1ccccc1Cl)=Nc1c(n[nH]c1C)N2
**Result** 73300

----------
Assay: Dose range finding and toxicokinetic study
Type: in vivo
Conditions: female, Wistar, rat, in vivo, po, 50 mg/kg
readout_type: AUC(0-t) (µg·h/mL)
Respond with the bare value in µg·h/mL.

**Query** What value of AUC(0-t) has been reported for the following compound? COc1ccc2c(c1)C(c1ccccc1Cl)=Nc1c(n[nH]c1C)N2
**Result** 211

----------
Assay: Single dose pharmacokinetic (SDPK) study
Assay type: in vivo
Conditions: plasma; Monkey, iv 5 mg/kg
readout_type: half-life (h)
Just the number in h, nothing appended.

**Query** What value of half-life has been recorded for this entry: COc1ccc2c(c1)C(c1ccccc1Cl)=Nc1c(n[nH]c1C)N2
**Result** 1.5

----------
Experiment: Plasma and tumor exposure at steady state in xenograft-bearing mice
Assay type: in vivo, nude mice
Conditions: nude, mouse, plasma, po, 25 mg/kg, SGC-7901, 25 mpk, bid, PO; read-out: Plasma AUC @ SS
readout_type: AUC

**Query** Any idea what its AUC is? The molecule is COc1ccc2c(c1)C(c1ccccc1Cl)=Nc1c(n[nH]c1C)N2
**Result** 47900 ng·h/mL

----------
Assay: Plasma and tumor exposure at steady state in xenograft-bearing mice
Assay type: in vivo, nude mice
Conditions: nude, mouse, in vivo, po, 12.5 mg/kg, BGC-823, 12.5 mpk, bid, PO; read-out: Plasma AUC @ SS
Text: Supplementary file pone.0065264.s004.doc: Table S3 ED60/90 estimation from the R1498 exposure at steady state in tumors. The exposure in plasma and tumor at steady state were plot against tumor growth inhibiton rate to estimate the ED60/E90 doses. (DOC) Click here for additional data file.
readout_type: AUC (ng·h/mL)
Give the quantity in ng·h/mL, number only.

**Query** Field request: AUC | item: COc1ccc2c(c1)C(c1ccccc1Cl)=Nc1c(n[nH]c1C)N2 [R1498]
**Result** 31100

----------
Experiment: Single dose pharmacokinetic (SDPK) study
Format: in vivo
Conditions: plasma; Rat, iv 5 mg/kg
readout_type: half-life (h)
Return type: number; implicit unit h.

**Query** Which half-life value belongs to COc1ccc2c(c1)C(c1ccccc1Cl)=Nc1c(n[nH]c1C)N2 [R1498] ?
**Result** 3.2

----------
Test: Single dose pharmacokinetic (SDPK) study
Type: in vivo
Details: male, plasma; Nude Mouse, iv 2 mg/kg
readout_type: half-life (h)
Return type: number; implicit unit h.

**Query** Query (compound): COc1ccc2c(c1)C(c1ccccc1Cl)=Nc1c(n[nH]c1C)N2 [R1498] ; field requested: half-life
**Result** 4

----------
Biological target: UniProtKB P35968
Sequence (P35968 20-1356): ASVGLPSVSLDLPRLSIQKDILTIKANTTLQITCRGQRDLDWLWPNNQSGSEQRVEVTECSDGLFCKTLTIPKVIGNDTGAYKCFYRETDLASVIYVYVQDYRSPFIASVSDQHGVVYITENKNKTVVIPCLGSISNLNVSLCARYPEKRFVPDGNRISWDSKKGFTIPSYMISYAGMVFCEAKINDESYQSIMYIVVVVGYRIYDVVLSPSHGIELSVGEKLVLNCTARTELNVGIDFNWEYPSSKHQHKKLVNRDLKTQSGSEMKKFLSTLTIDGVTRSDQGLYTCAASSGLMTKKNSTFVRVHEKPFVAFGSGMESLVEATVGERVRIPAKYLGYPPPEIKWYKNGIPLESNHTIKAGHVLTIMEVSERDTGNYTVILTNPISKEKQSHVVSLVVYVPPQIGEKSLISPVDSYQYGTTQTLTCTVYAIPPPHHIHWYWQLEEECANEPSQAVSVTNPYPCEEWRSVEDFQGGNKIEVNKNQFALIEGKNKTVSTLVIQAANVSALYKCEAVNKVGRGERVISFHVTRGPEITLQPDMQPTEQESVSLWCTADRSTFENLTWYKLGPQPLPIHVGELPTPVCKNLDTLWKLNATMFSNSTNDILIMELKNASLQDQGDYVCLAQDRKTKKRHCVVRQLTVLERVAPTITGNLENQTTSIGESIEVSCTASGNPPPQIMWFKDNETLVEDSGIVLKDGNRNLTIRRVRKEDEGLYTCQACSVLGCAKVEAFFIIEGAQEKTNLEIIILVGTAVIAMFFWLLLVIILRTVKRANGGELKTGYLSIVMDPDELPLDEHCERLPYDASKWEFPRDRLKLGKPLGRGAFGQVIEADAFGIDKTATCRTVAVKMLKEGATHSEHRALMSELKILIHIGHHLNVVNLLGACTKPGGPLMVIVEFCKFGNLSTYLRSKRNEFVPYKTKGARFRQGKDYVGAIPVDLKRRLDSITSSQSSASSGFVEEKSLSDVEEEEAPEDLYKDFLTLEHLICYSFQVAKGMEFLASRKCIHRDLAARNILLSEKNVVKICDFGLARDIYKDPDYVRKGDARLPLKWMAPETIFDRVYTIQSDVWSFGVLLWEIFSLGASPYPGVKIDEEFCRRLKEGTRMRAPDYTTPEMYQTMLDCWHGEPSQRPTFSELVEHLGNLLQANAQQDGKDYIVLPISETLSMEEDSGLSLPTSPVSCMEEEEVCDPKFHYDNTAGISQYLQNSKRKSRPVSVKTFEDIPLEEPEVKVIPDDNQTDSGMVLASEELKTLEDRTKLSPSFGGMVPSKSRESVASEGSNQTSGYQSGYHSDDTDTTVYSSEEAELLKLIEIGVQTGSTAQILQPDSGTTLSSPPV
readout_type: IC50 (µM)
Report as a plain number; the unit µM is understood.

**Query** Fill blank: measured IC50 of the compound COc1ccc2c(c1)C(c1ccccc1Cl)=Nc1c(n[nH]c1C)N2 is ____.
**Result** 0.025

----------
Test: Plasma and tumor exposure at steady state in xenograft-bearing mice
Format: in vivo, nude mice
Settings: nude, mouse, plasma, po, 3.125 mg/kg, BEL-7402, 3.125 mpk, bid, PO; read-out: Plasma AUC @ SS
readout_type: AUC (ng·h/mL)
# number only, unit ng·h/mL dropped from output

**Query** Consider the compound shown here: COc1ccc2c(c1)C(c1ccccc1Cl)=Nc1c(n[nH]c1C)N2 What is its recorded AUC?
**Result** 5380

----------
System: nasopharyngeal carcinoma cell lines
Assay: Cell proliferation assay (CCK-8, 72 h)
Format: cell-based
Conditions: Homo sapiens, nasopharyngeal carcinoma cell line panel, read-out: overall mean IC50
readout_type: IC50

**Query** Which IC50 is reported for this compound? COc1ccc2c(c1)C(c1ccccc1Cl)=Nc1c(n[nH]c1C)N2
**Result** 30.1 µM

----------
Experiment: Dose range finding and toxicokinetic study
Type: in vivo
Conditions: both sexes, dog, plasma, po, 15 mg/kg; beagle dogs, at highest dose; read-out: MTD AUC0-24
readout_type: AUC(0-t)

**Query** Look up AUC(0-t): COc1ccc2c(c1)C(c1ccccc1Cl)=Nc1c(n[nH]c1C)N2
**Result** > 111 µg·h/mL

----------
Test: Plasma and tumor exposure at steady state in xenograft-bearing mice
Type: in vivo, nude mice
Settings: nude, mouse, in vivo, po, 12.5 mg/kg, BEL-7404, 12.5 mpk, bid, PO; read-out: Plasma AUC @ SS
readout_type: AUC (ng·h/mL)
Your answer should be a plain number; it is taken to be in ng·h/mL.

**Query** Report AUC for COc1ccc2c(c1)C(c1ccccc1Cl)=Nc1c(n[nH]c1C)N2 please.
**Result** 21600

----------
Test: Plasma and tumor exposure at steady state in xenograft-bearing mice
Format: in vivo, nude mice
Settings: nude, mouse, plasma, po, 6.25 mg/kg, BEL-7404, 6.25 mpk, bid, PO; read-out: Plasma AUC @ SS
readout_type: AUC (ng·h/mL)
The answer is to be given in ng·h/mL; state only the numeric part.

**Query** Suppose we examine the compound COc1ccc2c(c1)C(c1ccccc1Cl)=Nc1c(n[nH]c1C)N2 ; what AUC value has been reported?
**Result** 6560

----------
Assay: Plasma and tumor exposure at steady state in xenograft-bearing mice
Type: in vivo, nude mice
Conditions: nude, mouse, plasma, po, 6.25 mg/kg, BEL-7402, 6.25 mpk, bid, PO; read-out: Plasma AUC @ SS
Text: Supplementary file pone.0065264.s004.doc: Table S3 ED60/90 estimation from the R1498 exposure at steady state in tumors. The exposure in plasma and tumor at steady state were plot against tumor growth inhibiton rate to estimate the ED60/E90 doses. (DOC) Click here for additional data file.
readout_type: AUC (ng·h/mL)
Value expressed in ng·h/mL; do not type the unit.

**Query** Return reported AUC; argument: COc1ccc2c(c1)C(c1ccccc1Cl)=Nc1c(n[nH]c1C)N2
**Result** 12600

----------
Assay: Plasma and tumor exposure at steady state in xenograft-bearing mice
Type: in vivo, nude mice
Settings: nude, mouse, plasma, po, 6.25 mg/kg, SGC-7901, 6.25 mpk, bid, PO; read-out: Plasma AUC @ SS
readout_type: AUC
Answer by giving the amount and then stating its unit.

**Query** AUC lookup needed for COc1ccc2c(c1)C(c1ccccc1Cl)=Nc1c(n[nH]c1C)N2 , thanks.
**Result** 11400 ng·h/mL

----------
Experiment: Single dose pharmacokinetic (SDPK) study
Format: in vivo
Settings: male, plasma, iv, 2 mg/kg; Nude Mouse, single dose; read-out: Vdss
readout_type: Vd (L/kg)
Field format: number, assumed L/kg, no unit text.

**Query** # get_value(readout='Vd', item= COc1ccc2c(c1)C(c1ccccc1Cl)=Nc1c(n[nH]c1C)N2 [R1498] )
**Result** 2

----------
Assay: Plasma and tumor exposure at steady state in xenograft-bearing mice
Format: in vivo, nude mice
Conditions: nude, mouse, in vivo, po, 12.5 mg/kg, BEL-7404, 12.5 mpk, single dose, PO (PK arm); read-out: Plasma AUC @ SS
readout_type: AUC (ng·h/mL)
State the answer as a number, implicitly in ng·h/mL.

**Query** Consider the molecule shown here: COc1ccc2c(c1)C(c1ccccc1Cl)=Nc1c(n[nH]c1C)N2 What is its recorded AUC?
**Result** 15200
